Tested on: U251 CNS
Assay: NCI tumour cell line growth inhibition, 48 h
measurement.kind: TGI

molecule	result
COC(=O)Nc1nc2ccc(C(=O)c3ccc(N(C)C4COC4)cc3)cc2[nH]1	> 100 µM
Cc1nc(C(N)=S)sc1C(/C=C/c1ccc(Cl)c(Cl)c1)=N/NC(C)(C)C	> 100 µM
CCN(CC)c1ccc2c(c1)Oc1nc(N)c(C#N)c(N)c1C2Sc1ccc(OC)cc1 (stereo not drawn)	2.81 µM
O=C1C=CC2=[N+]([O-])C(c3ccccc3)(c3ccccc3)C(=Nc3ccccc3)C2=C1	7.32 µM

Give TGI for all molecules that follow.
1. C/C=C\C(CC(=O)NCCC1CN(S(=O)(=O)C(F)(F)F)c2ccccc21)CC(=O)OC (stereo not drawn)
2. Cc1ccccc1C(=O)Oc1ccc(O)cc1
3. CS(=O)(=O)CCNCc1ccc(-c2ccc3ncnc(Nc4ccc(OCc5cccc(F)c5)c(C(F)(F)F)c4)c3c2)o1
4. COC(=O)C1c2c(c3ccccc3n2C(=O)OC)CCN2CCC1C(S(=O)(=O)c1ccccc1)C2=O (stereo not drawn)
5. CN(C)CCNC(=O)c1cccc2c(Nc3ccc(S(N)(=O)=O)cc3)c3ccccc3nc12
6. CC(=O)c1ccc2c(ccc(=O)n2C)c1
7. Cc1ccc(C2NC(=O)c3ccccc3N2)s1 (stereo not drawn)

Reply |
["> 100 µM", "> 100 µM", "8.48 µM", "> 100 µM", "4.69 µM", "> 100 µM", "> 100 µM"]

Give TGI for all molecules that follow.
1. CC1(C)CC(=O)C2=C(C1)NC1=C(C(=O)CC(C)(C)C1)C2c1ccc([N+](=O)[O-])cc1
2. COc1ccc(C2Oc3cc(OC)c(O)c(C)c3[C@H]2C)cc1 (stereo partly drawn)

Reply |
1. > 100 µM
2. > 100 µM
